Assay: Acute lethality in mice
Details: mouse, in vivo, oral, mortality within 72 hours
Metric: LD50 at 72 h

1. COc1cc2c(cc1OC)-c1c(OC)c(OC)cc3c1C(C2)N(C)CC3 (racemic) [d,l-glaucine phosphate, d,l-Glaucine Phosphate] : ≥ 681 mg/kg

This collection of values is drawn from patent US4315010A.
